This listing pairs binders with measured pKd.
Target: T1, PUF4 RNA-binding domain (Saccharomyces cerevisiae, UniProt P25339 537-888)
T1 sequence: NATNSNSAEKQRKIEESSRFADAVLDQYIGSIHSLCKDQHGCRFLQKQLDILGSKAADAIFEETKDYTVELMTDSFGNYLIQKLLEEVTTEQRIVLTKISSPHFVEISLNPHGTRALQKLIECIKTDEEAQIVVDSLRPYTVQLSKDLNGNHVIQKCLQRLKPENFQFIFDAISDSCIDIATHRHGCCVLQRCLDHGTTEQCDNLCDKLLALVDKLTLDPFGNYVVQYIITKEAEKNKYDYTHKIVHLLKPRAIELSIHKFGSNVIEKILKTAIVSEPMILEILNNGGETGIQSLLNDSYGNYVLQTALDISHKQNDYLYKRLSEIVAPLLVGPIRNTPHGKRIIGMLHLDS
Test: Mg; RNA-MaP; 20 mM Na-HEPES pH 7.4, 30 mM KOAc, 0.75 mM MgCl2, 0.1% Tween-20, 5% glycerol, 0.1 mg/mL BSA, 2 mM DTT; 25 C; 0.0125-409.6 nM protein
Settings: tags: N-His6-TEV cleaved; C-SNAP kept, Cy3B-labelled; label: tethered on chip by stalled RNA polymerase
pKd: −log10 of the molar value.

binder: UCUCUUUGUAAUUAUUCUCUU (ssRNA) [Ic_S1_P4E.1_K4.1_C4.1_H4.1_A4.1_[T5A]_[A6T]_F4.1_[T8A]_[A9T]_T4.1]
pKd: 7.03

binder: Ie_S2_P3E.2_K3.1_C3.2_H3.1_[+2CTCTC]_A3.1_F3.1_T3.2 (ssRNA) RNA: UUUGAUUAAUAUGAUAUCGUUCUUUCUCUUGCUCUCUAUAUAUAUUCUUUCUCGAUAUCAUAUUAAUCUUU
pKd: 7.21

binder: UCUCUUUGUACUUCAUUCUCUU (ssRNA) [Ic_S1_P5E.1_K5.1_C5.1_H5.1_A5.1_[T5C]_[A7T]_F5.1_[T8C]_[T9A]_[A10T]_T5.1]
pKd: 7.12
